Target: T1, human LIV-1 (human, UniProt Q13433 29-755)
T1 construct: whole, on cells; also called H-LIV1
T1 sequence (looked up): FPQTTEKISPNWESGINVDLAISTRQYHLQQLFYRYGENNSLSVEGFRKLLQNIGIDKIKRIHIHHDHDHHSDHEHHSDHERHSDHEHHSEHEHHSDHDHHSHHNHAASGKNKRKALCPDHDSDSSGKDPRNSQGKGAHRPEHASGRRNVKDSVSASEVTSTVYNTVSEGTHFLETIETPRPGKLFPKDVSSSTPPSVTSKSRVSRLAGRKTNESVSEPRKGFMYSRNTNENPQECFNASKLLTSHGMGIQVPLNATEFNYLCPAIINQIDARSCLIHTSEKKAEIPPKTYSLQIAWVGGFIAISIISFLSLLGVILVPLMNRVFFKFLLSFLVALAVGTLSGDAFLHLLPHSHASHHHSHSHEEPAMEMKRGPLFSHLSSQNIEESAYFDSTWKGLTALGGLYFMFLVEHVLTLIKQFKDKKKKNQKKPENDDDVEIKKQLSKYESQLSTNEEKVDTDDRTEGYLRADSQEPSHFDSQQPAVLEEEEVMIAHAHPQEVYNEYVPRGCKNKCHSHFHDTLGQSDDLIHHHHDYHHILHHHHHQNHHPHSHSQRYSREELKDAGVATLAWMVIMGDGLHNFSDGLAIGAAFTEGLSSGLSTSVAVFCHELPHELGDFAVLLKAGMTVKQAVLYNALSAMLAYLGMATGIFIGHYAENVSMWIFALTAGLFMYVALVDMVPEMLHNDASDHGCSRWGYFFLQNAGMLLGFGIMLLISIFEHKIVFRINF
Experiment: FACS, HEK293/H_LIV-1 cells
assay_readout: EC50 (nM)
Give the value in nM but do not write nM after it.

binder: 290F10G10.z2-Eribulin (antibody, V domains shown, Eribulin drug moiety conjugated; site and chain not stated) VH: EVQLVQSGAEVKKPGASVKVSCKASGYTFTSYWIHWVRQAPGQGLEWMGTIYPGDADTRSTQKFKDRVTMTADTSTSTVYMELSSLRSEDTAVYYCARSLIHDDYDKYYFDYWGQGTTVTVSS VL: DIQMTQSPSSLSASVGDRVTITCKARQDINKYIAWYQQKPGKAPKLLIHYTSILQPGIPSRFSGSGSGRDYTFTISSLQPEDIATYYCLQYDYFFTFGGGTKVEIK
assay_readout: EC50
u: nM
value_reported: 0.55

Using the record for 124H4D11.p2.z4-MMAE (antibody, V domains shown, MMAE drug moiety conjugated; site and chain not stated, Antibody-drug conjugate of 124H4D11.p2.z4; human gamma 1/kappa) VH: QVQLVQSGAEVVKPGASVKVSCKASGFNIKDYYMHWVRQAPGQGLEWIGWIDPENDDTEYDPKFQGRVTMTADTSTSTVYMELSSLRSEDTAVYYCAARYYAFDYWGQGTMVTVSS VL: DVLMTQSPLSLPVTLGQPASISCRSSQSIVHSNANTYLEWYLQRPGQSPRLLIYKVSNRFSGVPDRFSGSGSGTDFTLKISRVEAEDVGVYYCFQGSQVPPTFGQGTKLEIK , report its EC50.
0.08

Also check 5D6B10.Z7 (antibody, V domains shown) VH: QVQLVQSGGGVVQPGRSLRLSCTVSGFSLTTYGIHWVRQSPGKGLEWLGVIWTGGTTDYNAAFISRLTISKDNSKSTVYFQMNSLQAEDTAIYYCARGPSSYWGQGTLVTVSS VL: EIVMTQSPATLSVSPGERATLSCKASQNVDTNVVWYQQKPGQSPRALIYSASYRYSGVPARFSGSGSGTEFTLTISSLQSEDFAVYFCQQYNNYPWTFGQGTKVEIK
0.69

Also check 124H4D11.p2.z4-Eribulin (antibody, V domains shown, Eribulin drug moiety conjugated; site and chain not stated, Antibody-drug conjugate of 124H4D11.p2.z4; human gamma 1/kappa) VH: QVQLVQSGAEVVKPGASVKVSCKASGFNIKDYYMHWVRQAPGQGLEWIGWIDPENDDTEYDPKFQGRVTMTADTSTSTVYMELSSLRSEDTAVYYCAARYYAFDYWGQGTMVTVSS VL: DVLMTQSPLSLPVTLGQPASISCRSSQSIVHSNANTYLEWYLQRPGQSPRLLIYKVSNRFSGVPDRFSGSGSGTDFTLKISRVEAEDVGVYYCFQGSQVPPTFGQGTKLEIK
0.1

Also check 124H4D11.p2.z4 (antibody, V domains shown) VH: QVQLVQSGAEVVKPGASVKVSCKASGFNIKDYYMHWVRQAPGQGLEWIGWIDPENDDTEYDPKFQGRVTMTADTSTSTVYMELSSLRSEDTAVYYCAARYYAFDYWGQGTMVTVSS VL: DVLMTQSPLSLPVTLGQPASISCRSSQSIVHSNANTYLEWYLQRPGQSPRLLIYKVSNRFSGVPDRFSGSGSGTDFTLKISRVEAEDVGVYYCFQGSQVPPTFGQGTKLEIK
0.16

Also check 290F10G10.z2-MMAE (antibody, V domains shown, MMAE drug moiety conjugated; site and chain not stated, also called LM-001-MMAE) VH: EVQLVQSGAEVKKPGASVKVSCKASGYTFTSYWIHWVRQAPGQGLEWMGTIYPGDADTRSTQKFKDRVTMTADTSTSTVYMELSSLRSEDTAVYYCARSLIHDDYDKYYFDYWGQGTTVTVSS VL: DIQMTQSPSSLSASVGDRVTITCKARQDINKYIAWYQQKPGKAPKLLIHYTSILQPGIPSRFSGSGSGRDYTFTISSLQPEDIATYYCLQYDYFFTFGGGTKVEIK
0.34
